Experimental details: chemical genetic growth profiling, strain panel (AID 1159580);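 note: tested at 20 µM; growth read once vehicle control cultures reached saturation at 30 °C; 1 = growth at the plate median or of vehicle wells; lower values mean less growth of the strain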
Condition description: S. cerevisiae deletion strains, growth OD, locus YLR403W, strain SFP1, stronger effect = lower value
Among all 5,500 compounds or so, about 2,000 (36%) were called active. Roughly 18% stayed inconclusive and do not appear here. The list shows a part of the results.
So basically, the class depends on measured normalized growth, and the ranges are lo (below 0.4), med (0.4 to below 0.8), hi (0.8 or more)

Class? Entry: CCOC(=O)N/N=C\c1cc(Cl)cc(Cl)c1O
med

Class? Entry: CC(NC(=S)N/N=C\c1ccccc1O)c1ccccc1 (configuration not stated)
hi

Class? Entry: O=C(NNc1ccc(F)cc1F)c1sccc1Cl
hi

Class? Entry: CCCCNC(=S)N/N=C\c1cc(Cl)cc(Cl)c1O
lo

Class? Entry: COc1cc(Br)cc(C=Nc2ccc(Sc3ccccc3)nc2Sc2ccccc2)c1O
med

Class? Entry: Cc1c(C)c(C)c(C(O)c2ccccc2)c(C)c1C (configuration not stated)
hi

Class? Entry: CC(C)(C)C(=O)NC(=S)N/N=C\c1cc(Cl)cc(Cl)c1O
lo

Class? Entry: Oc1c(Br)cc(Br)cc1C=Nc1ccc(Sc2ccccc2)nc1Sc1ccccc1
lo

Class? Entry: Cc1cc(Cl)ccc1NNC(=O)c1sccc1Br
hi

Class? Entry: Cc1cc(Cl)ccc1NNC(=O)c1sccc1Cl
hi

Class? Entry: FC(F)(F)c1cccc(NC(=S)NN=C2CCCCCC2)c1
hi

----------
Experimental details: chemical genetic growth profiling, strain panel (AID 1159580)
Condition description: S. cerevisiae deletion strains, growth OD, locus YDR159W, strain sac3, stronger effect = lower value
Hit rate of the full screen: of about 5,500 compounds, about 2,000 (36%) were called active. Not shown: some 18% with an inconclusive outcome. This is one part of the list.
Endpoint label: normalized growth
Kindly provide the number alone.

Quick note, normalized growth for CCN[C@@H]1C[C@H](N)[C@@H](O[C@H]2OC(CN)=CC[C@H]2N)[C@H](O)[C@H]1OC1OC[C@](C)(O)[C@H](NC)[C@H]1O (stereo not given in full) landed at 1.01

Quick note, normalized growth for CC(C)c1c(O)c(-c2cc3c(c(C(C)C)c2O)CCC2C(C)(C)CCC[C@]32C)cc2c1CCC1C(C)(C)CCC[C@]21C (stereo not given in full) landed at 0.986

Quick note, normalized growth for COC(=O)c1c(C)cc(OC)cc1O landed at 0.953

Quick note, normalized growth for CCOC(=O)c1c(C)cc(O)cc1O landed at 0.887

Quick note, normalized growth for CCOCN(C(=O)CCl)c1c(C)cccc1CC landed at 0.959

----------
Experimental details: chemical genetic growth profiling, strain panel (AID 1159580);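 note: tested at 20 µM; growth read once vehicle control cultures reached saturation at 30 °C; 1 = growth at the plate median or of vehicle wells; lower values mean less growth of the strain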
Condition description: S. cerevisiae deletion strains, growth OD, strain wtn01, stronger effect = lower value
About 2,000 (36%) of roughly 5,500 compounds were called active. Another 18% or so got no clear call; they are omitted. This is one part of the list.
Exercise: state measured normalized growth for each of the compounds provided.
Kindly provide the number alone.

Quick note, normalized growth for CO[C@@]1(NC(=O)C(C(=O)O)c2ccc(O)cc2)C(=O)N2C(C(=O)O)=C(CSc3nnnn3C)CO[C@@H]21 (stereo partly drawn) landed at 1.02

Quick note, normalized growth for O=C(OC1Cc2c(O)cc(O)cc2OC1c1cc(=O)c(O)c2c(O)c(O)cc(C3Oc4cc(O)cc(O)c4CC3O)c2c1)c1cc(O)c(O)c(O)c1 (stereo not drawn) landed at 0.667

Quick note, normalized growth for CCCC(C)(COC(N)=O)COC(=O)NC(C)C (stereo not drawn) landed at 0.996

Quick note, normalized growth for CNC(C)C(O)c1ccccc1 (stereo not drawn) landed at 1.02

Quick note, normalized growth for O=C(O[C@@H]1Cc2c(O)cc(O)cc2O[C@@H]1c1cc(O)c(=O)c2c(O)c(O)cc([C@H]3Oc4cc(O)cc(O)c4C[C@H]3OC(=O)c3cc(O)c(O)c(O)c3)c2c1)c1cc(O)c(O)c(O)c1 landed at 0.808

Quick note, normalized growth for O=C(O[C@@H]1Cc2c(O)cc(O)cc2O[C@@H]1c1cc(O)c(=O)c2c(O)c(O)cc([C@H]3Oc4cc(O)cc(O)c4C[C@H]3O)c2c1)c1cc(O)c(O)c(O)c1 landed at 0.679

Quick note, normalized growth for NC(CSCSCC(N)C(=O)O)C(=O)O (stereo not drawn) landed at 1.04

Quick note, normalized growth for C[C@@H]([C@H](O)c1ccccc1)N(C)C landed at 1.01

----------
Experimental details: chemical genetic growth profiling, strain panel (AID 1159580);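 note: tested at 20 µM; growth read once vehicle control cultures reached saturation at 30 °C; 1 = growth at the plate median or of vehicle wells; lower values mean less growth of the strain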
Condition description: S. cerevisiae deletion strains, growth OD, locus YNL233W, strain BNI4, stronger effect = lower value
Hit rate of the full screen: of about 5,500 compounds, about 2,000 (36%) were called active. Another 18% or so got no clear call; they are omitted. The list shows a part of the results.
// returns f unless normalized growth is strictly below 1, in which case t

Determine whether this compound shows normalized growth lower than 1 (ties excluded): CN1C(C)(C)CCCC1(C)C
f

Determine whether this compound shows normalized growth lower than 1 (ties excluded): CC1CC[C@]2(NC1)O[C@H]1CC3C4CC[C@H]5C[C@@H](O)CC[C@]5(C)C4CC[C@]3(C)[C@H]1[C@@H]2C (some centres undefined)
t

Determine whether this compound shows normalized growth lower than 1 (ties excluded): CCCCCc1c2c(cc(O)c1C(=O)O)OC(=O)c1c(cc(OC)cc1C(=O)CCCC)O2
f

Determine whether this compound shows normalized growth lower than 1 (ties excluded): CC/C(=C(/CC)c1ccc(O)cc1)c1ccc(O)cc1
t

Determine whether this compound shows normalized growth lower than 1 (ties excluded): Cc1cc(C2CCCCC2)n(O)c(=O)c1
t

Determine whether this compound shows normalized growth lower than 1 (ties excluded): NC(=NCCC[C@H](N)C(=O)O)N[N+](=O)[O-]
t

Determine whether this compound shows normalized growth lower than 1 (ties excluded): Cc1ccccc1OCC(O)CO (centres undefined)
f

Determine whether this compound shows normalized growth lower than 1 (ties excluded): CCOC(=O)c1c(C)cc(O)cc1O
t

----------
Exercise: state measured normalized growth for each of the compounds provided.
Experimental details: chemical genetic growth profiling, strain panel (AID 1159580);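 note: tested at 20 µM; growth read once vehicle control cultures reached saturation at 30 °C; 1 = growth at the plate median or of vehicle wells; lower values mean less growth of the strain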
Condition description: S. cerevisiae deletion strains, growth OD, locus YHR079C, strain IRE1, stronger effect = lower value
The whole screen tested about 5,500 compounds, of which about 2,000 (36%) were called active. Not shown: some 18% with an inconclusive outcome. The list shows a part of the results.
Kindly provide the number alone.

Quick note, normalized growth for CCNC(=S)N/N=C\c1cc(Cl)cc(Cl)c1O landed at 0.341

Quick note, normalized growth for NC(=O)CN1CCCC1=O landed at 0.995

Quick note, normalized growth for Cc1cc(Cl)ccc1NNC(=O)c1sccc1Br landed at 0.862

Quick note, normalized growth for C=C[C@H]1CN2CC[C@H]1C[C@@H]2[C@@H](OC(=O)OCC)c1ccnc2ccc(OC)cc12 landed at 1.03

Quick note, normalized growth for CC(CC(C(N)=O)(c1ccccc1)c1ccccc1)N(C)C (stereo unspecified) landed at 1.02

Quick note, normalized growth for O=C1/C(=C/c2ccccn2)CCc2ccccc21 landed at 0.869

Quick note, normalized growth for Oc1c(Cl)cc(Cl)cc1/C=N\NC(=S)Nc1cc(C(F)(F)F)cc(C(F)(F)F)c1 landed at 0.103

Quick note, normalized growth for OC[C@H]1O[C@H](O[C@]2(CCl)O[C@H](CCl)[C@@H](O)[C@@H]2O)[C@H](O)[C@@H](O)[C@H]1Cl landed at 0.979

Quick note, normalized growth for CC(C)c1c(O)c(-c2cc3c(c(C(C)C)c2O)CCC2C(C)(C)CCC[C@]32C)cc2c1CCC1C(C)(C)CCC[C@]21C (stereo partly specified) landed at 0.965

Quick note, normalized growth for Cc1[nH]ccc2c1[nH]c1cc(=O)ccc12 landed at 0.989

Quick note, normalized growth for C=C(C)[C@H]1COc2cc3oc(=O)ccc3cc2O1 landed at 1.01

Quick note, normalized growth for CN(C)C=Nc1nnc(Sc2nc3c(Cl)cc(Cl)cc3s2)s1 landed at 0.946

Quick note, normalized growth for CC(C)c1c(O)ccc2c1CCC1[C@@](C)(C=O)CCC[C@]21C (stereo partly specified) landed at 0.791

Quick note, normalized growth for CC(C)c1c(O)ccc2c1CCC1C(C)(C)CCC[C@]21C (stereo partly specified) landed at 0.215

Quick note, normalized growth for COC(=O)[C@@]1(C)CCC[C@]2(C)c3ccc(O)c(C(C)C)c3CCC12 (stereo partly specified) landed at 0.502

Quick note, normalized growth for OC(COc1ccc(F)cc1)(c1ccccc1)c1ccccc1 landed at 1.09

Quick note, normalized growth for CC1CC[C@@]2(OC1)O[C@H]1CC3C4CC[C@@H]5C[C@@H](O)CC[C@]5(C)C4CC[C@]3(C)[C@H]1[C@@H]2C (stereo partly specified) landed at 0.97

Quick note, normalized growth for Cc1cc(C2CCCCC2)n(O)c(=O)c1 landed at 0.109

Quick note, normalized growth for O=c1ccc2cc(OC3OC(CO)C(O)C(O)C3O)c(O)cc2o1 (stereo unspecified) landed at 0.969

Quick note, normalized growth for C[C@H]1O[C@H](OC2[C@@H](O)[C@@H](O)C(O)[C@H](O)[C@H]2O)[C@@H](N)C[C@@H]1N=C(N)C(=O)O (stereo partly specified) landed at 0.964

Quick note, normalized growth for C[C@@H]1CC[C@@]2(OC1)OC1CC3C4CC=C5C[C@@H](O)CC[C@]5(C)C4CC[C@]3(C)C1[C@@H]2C (stereo partly specified) landed at 0.979

Measured values drawn from PubChem BioAssay AID1159580 for this set.
